# Experimental Details: Test Example 8: metabolic stability test
# Format: in vitro ADME, human
# Test Context: pooled human liver microsomes, 30 min at 37° C., NADPH, compound concentration 0.5 μmol/L
Experimental Endpoint: Remaining percentage (%)
Numbers only, in %.

Below, each entry is followed by its recorded Remaining percentage result.
>  <Molecule>
C[C@@H]1CCC[C@H]2N(C)C(=O)c3c(O)c(=O)c(-c4nnc(Cc5ccc(F)cc5F)s4)cn3N12 [II-124]

>  <Unit Symbol>
%

>  <Recorded Value>
103

$$$$
>  <Molecule>
C[C@H]1CC[C@H]2N(C)C(=O)c3c(O)c(=O)c(C(=O)NCc4ccc(Cl)cc4F)cn3N2C1 [II-063]

>  <Unit Symbol>
%

>  <Recorded Value>
95.7

$$$$
>  <Molecule>
CCN1C(=O)c2c(O)c(=O)c(C(=O)NCc3ccc(F)cc3F)cn2N2[C@H](COC)CC[C@@H]12 [II-084]

>  <Unit Symbol>
%

>  <Recorded Value>
97.5

$$$$
>  <Molecule>
C[C@@H]1CC[C@H]2N(C)C(=O)c3c(O)c(=O)c(-c4nnc(Cc5ccc(F)cc5F)s4)cn3N12 [II-113]

>  <Unit Symbol>
%

>  <Recorded Value>
85.3

$$$$
>  <Molecule>
CCN1C(=O)c2c(O)c(=O)c(C(=O)NCc3ccc(F)cc3F)cn2N2C[C@@H]3CCC[C@@H](C3)[C@@H]12 [II-013]

>  <Unit Symbol>
%

>  <Recorded Value>
77.6

$$$$

Record Remaining percentage for all entries; do not skip any.
1. CCN1C(=O)c2c(O)c(=O)c(-c3nnc(Cc4c(F)cc(F)cc4F)s3)cn2N2CC[C@@H](C)C[C@@H]12 [II-143]
2. CCN1C(=O)c2c(O)c(=O)c(-c3nnc(Cc4c(F)cc(F)cc4F)s3)cn2N2C[C@@H]3CC[C@@H](O3)[C@@H]12 [II-126]

1: 82.5; 2: 97.2
